Each recorded value in this set is attributed to the METLIN SMRT retention time set (Domingo-Almenara et al. 2019).

Test description: gradient 5% acetonitrile 3 min, to 50% in 2 min, to 85% in 15 min, held 3 min, 100 µL/min
Test parameters: column: Zorbax Extend-C18 2.1 x 50 mm; eluents: water / acetonitrile, 0.1% formic acid
Parameter: RP-LC retention time. Scope: all listed entries.
Number in s, nothing else.

# count of solved cases: 3
Compound	RP-LC retention time, s
COc1ccccc1Cc1noc(C2CN(C(=O)CCc3c(C)noc3C)C2)n1	738
CCC(=O)N1CCc2cc(N3CC(C(=O)Nc4ccccc4)CC3=O)ccc21 (stereo not given)	720
CC(C)c1ccc(CNC(=O)c2ccc3c(c2)N(C)C2CCCCN2C3=O)cc1 (stereo not given)	976

// recorded RP-LC retention time for O=C(NCCc1cccs1)c1nc(Nc2ccc(F)cc2)c2ccccc2n1 : 825

// recorded RP-LC retention time for Cc1ccc(-c2nc(NC(=O)C(C)C)sc2C)cc1 : 1010

###

Test description: gradient 5% acetonitrile 3 min, to 50% in 2 min, to 85% in 15 min, held 3 min, 100 µL/min
Test parameters: column: Zorbax Extend-C18 2.1 x 50 mm; eluents: water / acetonitrile, 0.1% formic acid
Endpoint: RP-LC retention time (s)
Number in s, nothing else.

# count of solved cases: 2
COc1ccc(-c2nnc3ccc(SCC(=O)Nc4nc(C)cs4)nn23)cc1OC 606
Cc1noc(-c2ccnc(SCC(=O)Nc3cccc(C(F)(F)F)c3)c2)n1 933

// recorded RP-LC retention time for COc1ccc(C(=O)N2CCCn3cc(-c4ccccc4)nc32)cn1 : 532

// recorded RP-LC retention time for O=C(Nc1ccc(N2CCN(C3CCCCC3)C2=O)nc1)c1ccc(F)c(F)c1 : 886

// recorded RP-LC retention time for CCC1=NS(=O)(=O)c2cccnc2N1c1ccc(F)c(C)c1 : 897

###

Test description: gradient 5% acetonitrile 3 min, to 50% in 2 min, to 85% in 15 min, held 3 min, 100 µL/min
Test parameters: column: Zorbax Extend-C18 2.1 x 50 mm; eluents: water / acetonitrile, 0.1% formic acid
Endpoint: RP-LC retention time (s)
Number in s, nothing else.

# count of solved cases: 6
Compound	Test result
CCOC(=O)c1ccccc1NC(=O)c1c2c(cn(-c3ccccc3)c1=O)C(=O)CC(C)(C)C2	1120
CCc1nc2cc(-c3noc(-c4n[nH]c5ccccc45)n3)ccc2o1	645
O=C(NCc1ccccn1)C1CCN(c2cnc(N3CCCC3)nc2)CC1	547
COC[C@@H]1CN(S(=O)(=O)c2ccc(C#N)cc2)C[C@H]1c1ccncc1	746
CCOC(=O)C1CCN(C(=O)Cn2c(N3CCOCC3)nc(C)cc2=O)CC1	620
Cc1noc(C)c1C1CCCN1C(=O)Nc1ccccc1C(F)(F)F (centres undefined)	879

// recorded RP-LC retention time for Cc1ccc2nc(-c3ccc(O)cc3)c(Nc3ccc4c(c3)OCCO4)n2c1 : 646

// recorded RP-LC retention time for CN1C(=O)c2cc(C(=O)N3CCCCC3)nn2CC1(C)C(=O)NC1CCCCCC1 (centres undefined) : 782

// recorded RP-LC retention time for CC12C=CC(O1)C1C(=O)N(c3ccc(N4CCOCC4)cc3)C(=O)C12 (centres undefined) : 662

###

Test description: gradient 5% acetonitrile 3 min, to 50% in 2 min, to 85% in 15 min, held 3 min, 100 µL/min
Test parameters: column: Zorbax Extend-C18 2.1 x 50 mm; eluents: water / acetonitrile, 0.1% formic acid
Parameter: RP-LC retention time. Scope: all listed entries.
Number in s, nothing else.

Molecule	RP-LC retention time / s
NC(=O)CSc1nnc(-c2cccc(Cl)c2)o1	696
COC(=O)c1ccsc1NC(=O)CS(=O)(=O)Cc1ccccc1	823
CCOC(=O)CNC(=O)NC(C(=O)N1CCc2ccccc21)c1ccccc1 (stereo not given)	832
O=C(Nc1cccc(Br)c1)N1CCC(n2cnc3cccnc32)CC1	660
CCCCN1CCN(S(=O)(=O)c2cc(-c3nnc(C(C)C)o3)co2)CC1	652

// recorded RP-LC retention time for Nc1nc(Nc2ccc(F)cc2)nc2cccc(F)c12 : 627

// recorded RP-LC retention time for COCCNC(=O)N1CCCN(C2=NS(=O)(=O)C(c3cccc(Cl)c3)=C2C)CC1 : 706

// recorded RP-LC retention time for CCOC(=O)[C@H](CCc1ccccc1)N[C@@H](C)C(=O)N1CCC[C@@H]1C(=O)O : 647

// recorded RP-LC retention time for O=C(NCc1ccncc1)c1csc(-c2ccc(N3CCCC3)nc2)n1 : 559

// recorded RP-LC retention time for Cn1nc(-c2ccc(NC(=O)c3ccc([N+](=O)[O-])cc3Cl)cc2)ccc1=O : 714
